Sourced from ChEMBL document CHEMBL6182860

biological target: Replicase polyprotein 1ab (Severe acute respiratory syndrome coronavirus 2); test: Inhibition of SARS-Cov-2 RdRp expressed in HEK293T cells co-transfected with pCoV-Gluc and pCOVID-nsp12/7/8 incubated for 24 hrs by microplate luminometric analysis; assay type: cell-based
Assign EC50 to each entry below.
One number for each entry, in nM.

O=C(CSc1[nH]c2ccccc2c1SCC(=O)Nc1ccc(Cl)c(Cl)c1)NCc1ccc(Cl)c(Cl)c1 ... 2020
O=C(CSc1[nH]c2ccccc2c1SCC(=O)Nc1ccc(Cl)c(Cl)c1)NCc1cccc(Cl)c1 ... 2140
Cc1ccc(CNC(=O)CSc2[nH]c3ccccc3c2SCC(=O)Nc2ccc(Cl)c(Cl)c2)cc1 ... 1600

// query Write down the reported EC50 of `O=C(CSc1[nH]c2ccccc2c1SCC(=O)Nc1ccc(Cl)c(Cl)c1)NCc1ccccc1` , test system: Replicase polyprotein 1ab (Severe acute respiratory syndrome coronavirus 2).
// result 3130

---

biological target: Replicase polyprotein 1ab (Severe acute respiratory syndrome coronavirus 2); assay: Inhibition of SARS-Cov-2 RdRp expressed in HEK293T cells co-transfected with pCoV-Gluc and pCOVID-nsp12/7/8 incubated for 24 hrs by microplate luminometric analysis; type: cell-based
Measured Attribute: EC50 (µM)
One number for each entry, in µM.

Go through the items and report each one's EC50.
1. CCOc1ccccc1NC(=O)CSc1c(SCC(=O)NCc2cccc(Cl)c2)[nH]c2ccccc12
2. COc1ccccc1CNC(=O)CSc1[nH]c2ccccc2c1SCC(=O)Nc1ccc(Cl)c(Cl)c1
3. O=C(CSc1[nH]c2ccccc2c1SCC(=O)Nc1ccc(Cl)c(Cl)c1)Nc1ccc(Cl)c(Cl)c1

// result
1: 0.57; 2: 2; 3: 2.43

---

assay: Cytotoxicity against HEK293T cells assessed as reduction in cell viability incubated for 24 hrs by CCK-8 assay; assay type: toxicity, cell-based, HEK-293T; details: human
For each record, write down the corresponding CC50 at 24 h.

Sample records with CC50 at 24 h:
O=C(CSc1[nH]c2ccccc2c1SCC(=O)Nc1ccc(Cl)c(Cl)c1)Nc1ccc(Cl)c(Cl)c1 ... 95.5 µM
O=C(CSc1[nH]c2ccccc2c1SCC(=O)Nc1ccc(Cl)c(Cl)c1)NCc1ccccc1Cl ... > 100 µM
CCOc1ccccc1NC(=O)CSc1c(SCC(=O)NCc2ccccc2OC)[nH]c2ccccc12 ... > 100 µM
CCC(CC)COC(=O)[C@H](C)N[P@](=O)(OC[C@H]1O[C@@](C#N)(c2ccc3c(N)ncnn23)[C@H](O)[C@@H]1O)Oc1ccccc1 ... > 100 µM
CCOc1ccccc1NC(=O)CSc1c(SCC(=O)NCc2ccc(C)cc2)[nH]c2ccccc12 ... > 100 µM
O=C(CSc1[nH]c2ccccc2c1SCC(=O)Nc1ccc(Cl)c(Cl)c1)NCc1ccc(-c2ccccc2)cc1 ... 75.1 µM
Cc1ccc(CNC(=O)CSc2[nH]c3ccccc3c2SCC(=O)Nc2ccc(Cl)c(Cl)c2)cc1 ... > 100 µM
CCOc1ccccc1NC(=O)CSc1c(SCC(=O)NCc2ccccc2Cl)[nH]c2ccccc12 ... > 100 µM
Cc1ccccc1CNC(=O)CSc1[nH]c2ccccc2c1SCC(=O)Nc1ccc(Cl)c(Cl)c1 ... > 100 µM
CCOc1ccccc1NC(=O)CSc1c(SCC(=O)NCc2ccccc2)[nH]c2ccccc12 ... > 100 µM

Go through the items and report each one's CC50 at 24 h.
1. O=C(CSc1[nH]c2ccccc2c1SCC(=O)Nc1ccc(Cl)c(Cl)c1)NCc1ccc(Cl)c(Cl)c1
2. O=C(CSc1[nH]c2ccccc2c1SCC(=O)Nc1ccc(Cl)c(Cl)c1)NCc1ccccc1F
3. CCOc1ccccc1NC(=O)CSc1c(SCC(=O)NCc2ccc(Cl)cc2)[nH]c2ccccc12
4. CCOc1ccccc1NC(=O)CSc1c(SCC(=O)NCc2ccccc2F)[nH]c2ccccc12
5. CCOc1ccccc1CNC(=O)CSc1[nH]c2ccccc2c1SCC(=O)Nc1ccc(Cl)c(Cl)c1
6. CCOc1ccccc1NC(=O)CSc1c(SCC(=O)NCc2ccccc2C)[nH]c2ccccc12
7. CCOc1ccccc1NC(=O)CSc1c(SCC(=O)NCc2ccc(Cl)c(Cl)c2)[nH]c2ccccc12

// result
1. > 100 µM
2. 78.6 µM
3. > 100 µM
4. > 100 µM
5. 72.5 µM
6. > 100 µM
7. > 100 µM

// query Which CC50 at 24 h value is on record for `CCOc1ccccc1NC(=O)CSc1c(SCC(=O)NCc2cccc(Cl)c2)[nH]c2ccccc12` ?
// result > 100 µM
